B1: PPFIA4 (parent)
chain: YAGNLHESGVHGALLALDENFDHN

variants of: B1; assay: protein stability index of a GFP-peptide fusion (GPS, HEK-293T) (PSI 1-6); higher = more stable; conditions: c terminus: a fixed tail appended;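 further: lentivirally expressed fusions sorted by FACS into six bins by GFP to DsRed ratio, PSI derived from sequencing read proportions per bin multiplied by bin number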
metric: protein stability index
Give a plain numeric answer without units written out.

N20V    2.42

So what does the record say about protein stability index for `G12E` ?
3.78
